All figures here come from PubChem BioAssay (NCATS).

assay: AP1 Signaling Pathway (AID 357); conditions: ME-180 (cervical carcinoma) AP-1-bla reporter, EGF-induced, beta-lactamase ratio, 5 h; at 17.2 µM (top of the series) unless noted;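 note: ME-180 reporter cells stimulated with EGF at its EC50 level; % is set by controls: 0 for no effect and ±100 for the full control effect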
Inconclusive results are not listed. The source made the active and inactive calls. Calls come from the whole dose curve; as a rule, active = well fitted curve in either direction with a large enough effect (not every such curve was filed as active); inconclusive = small, poorly fitted or top-dose-only effect, or another doubt; inactive = flat fitted curve, though single readings scatter.
REPORTED METRIC: activity change, negative = inhibition

Ask: Tell me the measured activity change, negative = inhibition of "Cc1ccc(NC(=O)CSc2nnc(-c3ccco3)c(-c3ccco3)n2)cc1" , please.
Result: 0.107% (inactive)

Ask: Tell me the measured activity change, negative = inhibition of "COc1ccc(N2CCN(c3oc(COc4ccc(Cl)cc4)nc3C#N)CC2)cc1" , please.
Result: -27.6% (inactive)

Ask: Tell me the measured activity change, negative = inhibition of "COCCN(Cc1ccccc1)P(=O)(O)c1ccccc1OCC(=O)O" , please.
Result: -2.92% (inactive)

Ask: Tell me the measured activity change, negative = inhibition of "Cc1ccc(OCc2nnc(NC(=O)c3ccco3)s2)c(C)c1" , please.
Result: -4.34% (inactive)

Ask: Tell me the measured activity change, negative = inhibition of Cc1ccc(C2CC(C(F)(F)F)n3ncc(C(N)=O)c3N2)cc1 (centres undefined) , please.
Result: -3.17% (inactive)

Ask: Tell me the measured activity change, negative = inhibition of COC(=O)C(NC(=O)c1ccco1)(Nc1ccc(Br)cn1)C(F)(F)F (centres undefined) , please.
Result: -10.6% (inactive)

Ask: Tell me the measured activity change, negative = inhibition of "Cc1nnc2n(Cc3ccccc3)c(=O)c3c4c(sc3n12)CN(Cc1ccccc1)CC4" , please.
Result: 3.27% (inactive)

Ask: Tell me the measured activity change, negative = inhibition of "Cn1c(=O)c2c(nc(NCCCO)n2Cc2cccc(C(F)(F)F)c2)n(C)c1=O" , please.
Result: 8.4% (inactive)

Ask: Tell me the measured activity change, negative = inhibition of "COCCCNc1nc2c(c(=O)n(C)c(=O)n2C)n1Cc1cccc(OC)c1" , please.
Result: -8.39% (inactive)

Ask: Tell me the measured activity change, negative = inhibition of "OCCNc1nc(-c2ccccc2)c2ccccc2n1" , please.
Result: -11.6% (inactive)

Ask: Tell me the measured activity change, negative = inhibition of COc1ccc(C2=CC(c3ccc(C)cc3)n3nnnc3N2)cc1 (centres undefined) , please.
Result: -20.8% (inactive)

Ask: Tell me the measured activity change, negative = inhibition of "Cc1cc(=O)oc2cc(OCCSCCN3CCOCC3)ccc12" , please.
Result: -6.35% (inactive)

Ask: Tell me the measured activity change, negative = inhibition of "CCCCCn1c2nc3ccccc3nc2c2c(=O)n(CC(C)C)cnc21" , please.
Result: 2.71% (inactive)

Ask: Tell me the measured activity change, negative = inhibition of "CC(C)Sc1nc(N2CCCC2)c2c(c1C#N)CC(C)(C)OC2" , please.
Result: -10.5% (inactive)

Ask: Tell me the measured activity change, negative = inhibition of "Cn1c(O)c(C=Nc2ccc(Cc3ccncc3)cc2)c(=O)n(C)c1=O" , please.
Result: -2.77% (inactive)

Ask: Tell me the measured activity change, negative = inhibition of "COc1ccc(-c2nnc3sc(-c4c(OC)cccc4OC)nn23)cc1" , please.
Result: -13.7% (inactive)

Ask: Tell me the measured activity change, negative = inhibition of Cc1ccccc1COc1ccc(/C(O)=C2/C(=O)C(=O)N(CCCn3ccnc3)C2c2ccco2)cc1 (centres undefined) , please.
Result: -11.1% (inactive)

Ask: Tell me the measured activity change, negative = inhibition of "CCC(NC(=O)NC1=NCCS1)(C(F)(F)F)C(F)(F)F" , please.
Result: 8.03% (inactive)

Ask: Tell me the measured activity change, negative = inhibition of "COC(=O)c1ccccc1N1C(=O)[C@@H]2C(c3ccc(Br)cc3)=NO[C@@H]2C1=O" , please.
Result: 11.9% (inactive)

Ask: Tell me the measured activity change, negative = inhibition of "CCOC(=O)CNC(=O)CNC(=O)c1ccc(OCC(C)C)cc1" , please.
Result: -5.66% (inactive)

Ask: Tell me the measured activity change, negative = inhibition of "CC12CN3CC(=O)N4CC5(C)CN(CC(C)(C4)C5=O)C(=O)CN(C1)CC(C)(C3)C2=O" , please.
Result: -1.13% (inactive)

Ask: Tell me the measured activity change, negative = inhibition of "CCCCNC(=O)c1c(N)n(/N=C/c2cccnc2)c2nc3ccccc3nc12" , please.
Result: -12% (inactive)

Ask: Tell me the measured activity change, negative = inhibition of "CCOc1cccc(-c2nnc3sc(-c4cccs4)nn23)c1" , please.
Result: -12.6% (inactive)

Ask: Tell me the measured activity change, negative = inhibition of "C=CCOn1c(=O)c(-c2cc3ccccc3o2)[n+]([O-])c2ccccc21" , please.
Result: -28.9% (inactive)

Ask: Tell me the measured activity change, negative = inhibition of O=C(c1ccc(N2C(=O)C3CC=C(Cl)CC3C2=O)cc1)N1CCCCC1 (centres undefined) , please.
Result: -18.4% (inactive)

Ask: Tell me the measured activity change, negative = inhibition of "O=c1[nH]c2sc3c(c2c(=O)n1Cc1ccccc1)CCC3" , please.
Result: -27.5% (inactive)

Ask: Tell me the measured activity change, negative = inhibition of "O=C(CCC(=O)CCN1CCCCC1)CCN1CCCCC1" , please.
Result: 13.9% (inactive)

Ask: Tell me the measured activity change, negative = inhibition of "CC1CCN(CC[C@@H]2CCCN2S(=O)(=O)c2cccc(O)c2)CC1" , please.
Result: 2.33% [at 38 µM] (inactive)

Ask: Tell me the measured activity change, negative = inhibition of "CNC(=O)CCn1nc(-c2ccccc2)c2ccccc2c1=O" , please.
Result: 5.34% (inactive)

Ask: Tell me the measured activity change, negative = inhibition of Cc1ccc(C(=O)C2C(c3cccs3)NC(=O)NC2(O)C(F)(F)F)cc1 (centres undefined) , please.
Result: 1.39% (inactive)

Ask: Tell me the measured activity change, negative = inhibition of "COc1ccc(C(=O)Cn2c(N3CCCCC3)nc3c2c(=O)n(C)c(=O)n3C)cc1OC" , please.
Result: 14.7% (inactive)

Ask: Tell me the measured activity change, negative = inhibition of "Clc1nc(-c2n[nH]nc2Cl)n[nH]1" , please.
Result: 14.2% (inactive)

Ask: Tell me the measured activity change, negative = inhibition of "O=C(CCN1C(=O)c2ccccc2C1=O)OCN1C(=O)c2ccccc2C1=O" , please.
Result: 5.65% (inactive)

Ask: Tell me the measured activity change, negative = inhibition of "Cc1ccc(-n2ncc3c(NCCCN4CCCC4=O)ncnc32)c(C)c1" , please.
Result: -15.8% (inactive)
